The following compounds are shown together with reported IC50 values.
# Tested on: CCRF-SB
# ASSAY COMMENT: Compound was tested for its effect on the proliferation of CCRF-SB human lymphoblastic B-leukemia cell line.
# Assay type: functional, cell-based
Kindly provide the numeric value in µM only, without the unit symbol.

Solved cases below.
{"SMILES RECORD": "Cc1noc(-c2nn([C@@H]3O[C@H](CO)[C@@H](O)[C@H]3O)cc2I)n1", "RESULT UNITS": "µM", "IC50": 2.8}
{"SMILES RECORD": "CCCCOC(=O)c1nn([C@@H]2O[C@H](CO)[C@@H](O)[C@H]2O)cc1I", "RESULT UNITS": "µM", "IC50": 21}

Qu. Find the measured IC50 of "COC(=O)c1nn([C@@H]2O[C@H](CO)[C@@H](O)[C@H]2O)cc1I" with CCRF-SB as test system.
Ans. 0.9

Qu. Find the measured IC50 of "COc1cccc2c1C(=O)c1c(O)c3c(c(O)c1C2=O)C[C@@](O)(C(=O)CO)C[C@@H]3O[C@H]1C[C@H](N)[C@H](O)[C@H](C)O1" with CCRF-SB as test system.
Ans. 0.05

* * *

# Test system: HT-29
# ASSAY COMMENT: Compound was tested for its effect on the proliferation of HT-29 human colon adenocarcinoma.
# Type: functional, cell-based
ASSAY READOUT: IC50

Solved cases below.
{"SMILES RECORD": "CCCCOC(=O)c1nn([C@@H]2O[C@H](CO)[C@@H](O)[C@H]2O)cc1I", "ASSAY READOUT": "IC50", "TEST VALUE": "25 µM"}
{"SMILES RECORD": "COC(=O)c1nn([C@@H]2O[C@H](CO)[C@@H](O)[C@H]2O)cc1I", "ASSAY READOUT": "IC50", "TEST VALUE": "2.8 µM"}
{"SMILES RECORD": "COC(=O)c1ncn([C@@H]2O[C@H](CO)[C@@H](O)[C@H]2O)n1", "ASSAY READOUT": "IC50", "TEST VALUE": "> 300 µM"}

Qu. Find the measured IC50 of "O=C(O)c1nn([C@@H]2O[C@H](CO)[C@@H](O)[C@H]2O)cc1I" with HT-29 as test system.
Ans. > 300 µM

Qu. Find the measured IC50 of "Cc1noc(-c2nn([C@@H]3O[C@H](CO)[C@@H](O)[C@H]3O)cc2I)n1" with HT-29 as test system.
Ans. 4.8 µM

Qu. Find the measured IC50 of "COc1cccc2c1C(=O)c1c(O)c3c(c(O)c1C2=O)C[C@@](O)(C(=O)CO)C[C@@H]3O[C@H]1C[C@H](N)[C@H](O)[C@H](C)O1" with HT-29 as test system.
Ans. 1.1 µM

Qu. Find the measured IC50 of "C#Cc1cn([C@@H]2O[C@H](CO)[C@@H](O)[C@H]2O)nc1C(N)=O" with HT-29 as test system.
Ans. > 300 µM

Qu. Find the measured IC50 of "NC(=O)c1nn([C@@H]2O[C@H](CO)[C@@H](O)[C@H]2O)cc1I" with HT-29 as test system.
Ans. > 300 µM

Qu. Find the measured IC50 of "COC(=O)c1csc([C@@H]2O[C@H](CO)[C@@H](O)[C@H]2O)n1" with HT-29 as test system.
Ans. > 300 µM
